This listing pairs compounds with measured Temperature at which the hexagonal phase begins to melt.
protocol_details: Lyotropic behaviour: flooding technique on hot stage, optical microscopy under crossed polarised light
Format: physicochemical
protocol_conditions: flooding, heating
Form entry: value (°C) — number only.

CC(C)CCCC(C)CCCC(C)CCCC(C)CCN(CCO)C(N)=O (stereo not shown) :: 50.9
CC(C)CCCC(C)CCCC(C)CCNC(N)=O (stereo not shown) :: 55
CC(C)CCCC(C)CCCC(C)CCCC(C)CCNC(N)=O (stereo not shown) :: 72.6
CC(C)CCCC(C)CCCC(C)CCCC(C)CC(=O)NC(C)(CO)CO (stereo not shown) :: 25.5
CCCCCCCC/C=C\CCCCCCCCOC(=O)C(O)CO (stereo not shown) :: 65

# next compound below
Task: Requested read-out: Temperature at which the hexagonal phase begins to melt. Entry: CC(C)CCCC(C)CCCC(C)CCCC(C)CCNC(=O)NCCO (stereo not shown)
Result: 40.4

----------
protocol_details: Flooding experiment: lyotropic phase formed in excess water at 40° C. Note: key: Hll denotes reverse hexagonal phase.
Assay type: physicochemical
protocol_conditions: sample maintained at 40° C., crossed polarised light, 200x
metric_name: Phase formed in excess water

Here is how some compounds turned out for Phase formed in excess water.
CC(C)CCCC(C)CCCC(C)CCCC(C)CCN(CCO)C(N)=O (centres unmarked) :: Hll
CC(C)CCCC(C)CCCC(C)CCCC(C)CCOC(=O)C(O)CO (centres unmarked) :: Hll
CC(C)CCCC(C)CCCC(C)CCNC(N)=O (centres unmarked) :: Hll
CC(C)CCCC(C)CCCC(C)CCCC(C)CCNC(=O)NCCO (centres unmarked) :: Hll
CC(C)CCCC(C)CCCC(C)CCCC(C)CC(=O)OCC(O)CO (centres unmarked) :: Hll
CC(C)CCCC(C)CCCC(C)CCOC(=O)C(O)CO (centres unmarked) :: Hll

Task: Name the recorded Phase formed in excess water for CC(C)CCCC(C)CCCC(C)CCCC(C)CCNC(N)=O (centres unmarked) .
Result: Hll

Task: Which Phase formed in excess water is listed for CCCCCCCC/C=C\CCCCCCCCOC(=O)C(O)CO (centres unmarked) ?
Result: Hll

----------
% water (w/w) in saturated lyotropic phase for assorted compounds
protocol_details: Water content of saturated lyotropic phase by Karl Fisher titration
Type: physicochemical
protocol_conditions: 300 mg surfactant in excess water, equilibrated at 40° C.; mean of three samples ± SD

Consider the worked cases shown below.
CC(C)CCCC(C)CCCC(C)CCCC(C)CCNC(N)=O (stereo not shown) :: 28.4 ± 2.3 % (w/w)
CC(C)CCCC(C)CCCC(C)CCCC(C)CCNC(=O)NCCO (stereo not shown) :: 14.3 ± 4.6 % (w/w)
CC(C)CCCC(C)CCCC(C)CCOC(=O)C(O)CO (stereo not shown) :: 24.7 ± 0.7 % (w/w)
CC(C)CCCC(C)CCCC(C)CCCC(C)CCOC(=O)C(O)CO (stereo not shown) :: 28.7 ± 2.5 % (w/w)
CCCCCCCC/C=C\CCCCCCCCOC(=O)C(O)CO (stereo not shown) :: 16.8 ± 3.9 % (w/w)
CC(C)CCCC(C)CCCC(C)CCNC(N)=O (stereo not shown) :: 8.1 ± 2.5 % (w/w)

Next compound, % water (w/w) in saturated lyotropic phase to be filled in.
Task: For the compound shown here, CC(C)CCCC(C)CCCC(C)CCCC(C)CC(=O)OCC(O)CO (stereo not shown) , give the reported % water (w/w) in saturated lyotropic phase.
Result: 23.1 ± 3.2 % (w/w)

----------
Here the recorded Temperature at which the lyotropic phase forms / begins to form on contact with water is given for each entry.
protocol_details: Lyotropic behaviour: flooding technique on hot stage, optical microscopy under crossed polarised light
Type: physicochemical
protocol_conditions: flooding, heating
Report the figure in °C without appending any unit label.

CCCCCCCC/C=C\CCCCCCCCOC(=O)C(O)CO (centres unmarked) :: 30

Continue with the compound presented below.
Task: Recorded Temperature at which the lyotropic phase forms / begins to form on contact with water of CC(C)CCCC(C)CCCC(C)CCNC(N)=O (centres unmarked) , please.
Result: 30

----------
protocol_details: Lyotropic behaviour: flooding technique on hot stage, optical microscopy under crossed polarised light
Type: physicochemical
protocol_conditions: flooding, heating
metric_name: Temperature at which the lyotropic phase forms / begins to form on contact with water

Task: Temperature at which the lyotropic phase forms / begins to form on contact with water lookup needed for CC(C)CCCC(C)CCCC(C)CCCC(C)CC(=O)NC(C)(CO)CO (stereo not drawn) , thanks.
Result: 10-15 °C
